These entries and their values trace back to paper PMC3961306.

studyTarget: panel of more than 300 wild-type and mutant kinases (313 kinase panel) (Homo sapiens, UniProt P17252)
assaySummary: Kinase profiling in a biochemical assay panel (mobility shift assays and ELISA), %-inhibition at 1 μM; selectivity entropy
appliedConditions: kinase PKCα; 1 μM
measurementName: %-inhibition of PKCα

Sample answers from the record:
COc1cc2nccc(Oc3ccc(NC(=O)C4(C(=O)Nc5ccc(F)cc5)CC4)cc3)c2cc1OC [cabozantinib]
-8.47%
N#CC[C@H](C1CCCC1)n1cc(-c2ncnc3[nH]ccc23)cn1
8%
COc1cc2c(Nc3ccc(Br)cc3F)ncnc2cc1OCC1CCN(C)CC1
-0.27%
CC(=O)Nc1cccc(-n2c(=O)n(C3CC3)c(=O)c3c(Nc4ccc(I)cc4F)n(C)c(=O)c(C)c32)c1
-5%
COc1cc(Nc2c(C#N)cnc3cc(OCCCN4CCN(C)CC4)c(OC)cc23)c(Cl)cc1Cl
54%

Need %-inhibition of PKCα for each of these molecules.
1. Cc1cn(-c2cc(NC(=O)c3ccc(C)c(Nc4nccc(-c5cccnc5)n4)c3)cc(C(F)(F)F)c2)cn1
2. CO[C@H]1C[C@@H]2CC[C@@H](C)[C@@](O)(O2)C(=O)C(=O)N2CCCC[C@H]2C(=O)O[C@H]([C@H](C)C[C@@H]2CC[C@@H](OC(=O)C(C)(CO)CO)[C@H](OC)C2)CC(=O)[C@H](C)/C=C(\C)[C@@H](O)[C@@H](OC)C(=O)[C@H](C)C[C@H](C)/C=C/C=C/C=C/1C
3. CNC(=O)c1cc(Oc2ccc(NC(=O)Nc3ccc(Cl)c(C(F)(F)F)c3)c(F)c2)ccn1

1. 6.55%
2. -6%
3. -11%
